Biological target: T1, YejK(R276A-R280A-K284A) (Escherichia coli, UniProt P33920 1-335, R276A;R280A;K284A)
T1 sequence: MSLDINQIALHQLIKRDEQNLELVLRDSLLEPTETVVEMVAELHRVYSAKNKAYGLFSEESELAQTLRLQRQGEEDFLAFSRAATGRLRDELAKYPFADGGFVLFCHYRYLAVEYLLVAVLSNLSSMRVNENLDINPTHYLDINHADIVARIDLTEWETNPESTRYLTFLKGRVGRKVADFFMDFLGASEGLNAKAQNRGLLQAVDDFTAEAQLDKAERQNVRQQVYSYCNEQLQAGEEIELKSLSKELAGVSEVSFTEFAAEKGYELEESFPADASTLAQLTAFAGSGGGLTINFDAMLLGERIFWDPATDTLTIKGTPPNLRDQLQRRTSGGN
Assay: fluorescence polarization
Quantity kind: Kd (µM)
Numeric only. Scale: µM

Fill in the blank: the reported Kd of AT-rich 20-mer (dsDNA) DNA 1: ATTATTAATTAATTAATAAT DNA 2: ATTATTAATTAATTAATAAT is ____.
40

Hey, just so you know, these numbers are from paper PMC11229321.
